# system: indoleamine 2,3-dioxygenase (IDO) (Homo sapiens, UniProt P14902)
# Sequence (P14902 whole entry): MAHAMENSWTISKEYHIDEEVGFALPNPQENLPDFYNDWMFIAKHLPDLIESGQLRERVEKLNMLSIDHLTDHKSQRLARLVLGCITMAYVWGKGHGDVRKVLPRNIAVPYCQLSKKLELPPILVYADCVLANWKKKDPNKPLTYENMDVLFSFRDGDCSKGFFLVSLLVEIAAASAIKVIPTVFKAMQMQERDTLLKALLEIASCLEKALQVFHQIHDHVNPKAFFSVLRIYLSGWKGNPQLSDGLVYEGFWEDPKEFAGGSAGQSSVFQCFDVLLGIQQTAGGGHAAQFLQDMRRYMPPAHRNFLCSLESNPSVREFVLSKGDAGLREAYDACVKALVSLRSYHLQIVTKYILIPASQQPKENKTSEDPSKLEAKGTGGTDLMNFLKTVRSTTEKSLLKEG
# assay.details: HeLa cell-based indoleamine 2,3-dioxygenase (IDO) assay (kynurenine production, IFNγ-stimulated)
# experimental.setup: HeLa cells, IFNγ 25 ng/mL, 48 hour incubation; read-out: IDO Hela IC50
pIC50: −log10 of the molar value.
result.type: pIC50

I. CCC(NC(=O)c1ccc(OC)nc1)C1CCC(c2cccc(C(F)(F)F)n2)CC1 (single isomer, unassigned) [Example 47a]
II. CC[C@@H](NC(=O)c1ccc(OC)nc1)[C@H]1CC[C@@H](c2cnc3ccccc3c2)CC1 (single isomer, unassigned) [Example 20d]
III. CC[C@@H](NC(=O)c1cnc(OC)nc1)[C@H]1CC[C@@H](c2ccnc3c(F)cccc32)CC1 (single isomer, unassigned) [Example 60a]
Sort key: pIC50. Order: high to low. Scope: items listed above. In plain terms: list the labels in the order you were asked to.
II, I, III

* * *

Known pIC50 of a selection of compounds
# system: indoleamine 2,3-dioxygenase (IDO) (Homo sapiens)
# assay.details: HeLa cell-based indoleamine 2,3-dioxygenase (IDO) assay (kynurenine production, IFNγ-stimulated)
# experimental.setup: HeLa cells; potency class; read-out: Patent Potency Hela IC50 A < 10 nM, B > 10 nM, C > 100 nM
pIC50: −log10 of the molar value.

CC[C@@H](NC(=O)c1ccc(OC)nc1)[C@H]1CC[C@@H](c2ccnc3ccc(F)cc32)CC1 (single isomer, unassigned) [Example 10b]; > 8.00
CCC(NC(=O)c1ccc(OC)nc1)C1CCC(c2cccc(=O)n2C)CC1 (single isomer, unassigned) [Example 32a]; < 7.00

Fill in: pIC50 of [2H]C([2H])([2H])Oc1ccc(C(=O)NC(CC)[C@H]2CC[C@@H](c3ccnc(OC)c3C(F)F)CC2)cn1 (mixture of isomers) is ___
> 8.00

* * *

# system: indoleamine 2,3-dioxygenase (IDO) (Homo sapiens, UniProt P14902)
# assay.details: HeLa cell-based indoleamine 2,3-dioxygenase (IDO) assay (kynurenine production, IFNγ-stimulated)
# experimental.setup: HeLa cells, IFNγ 25 ng/mL, 48 hour incubation; read-out: IDO Hela IC50
result.type: IC50 (nM)

CCC(NC(=O)c1ccc(OC)nc1)C1CCC(c2ccnc3c(F)cc(F)cc23)CC1 (single isomer, unassigned) [Example 57d]; 40
COc1ncc(C(=O)N[C@H](C)[C@H]2CC[C@@H](c3ccnc4ccc(F)cc43)CC2)cn1 [Example 8]; 10
CCC(NC(=O)c1ccc(OC)nc1)C1CCC(c2ccnc3c(C(F)(F)F)cccc23)CC1 (single isomer, unassigned) [Example 18a]; 830

I. CCC(NC(=O)c1ccc(OC)nc1)C1CCC(c2ccnc(OC(F)F)c2)CC1 (single isomer, unassigned) [Example 30d]
II. CCC(NC(=O)c1ccc(OC)nc1)[C@H]1CC[C@@H](c2nccc(C)n2)CC1 (single isomer, unassigned) [Example 49a]
Lab note: record which item had the higher IC50, I or II . Give the label under which the chosen entry appears.
I

1. CCC(NC(=O)c1ccc(OC)nc1)C1CCC(c2ccnc(OC(F)F)c2)CC1 (single isomer, unassigned) [Example 30b]
2. CCC(NC(=O)c1cnc(OC)nc1)C1CCC(c2ccnc3c(F)cc(F)cc23)CC1 (single isomer, unassigned) [Example 58c]
3. CCC(NC(=O)c1cnc(OC)nc1)[C@H]1CC[C@@H](c2ccnc(OC)c2C(F)F)CC1 (single isomer, unassigned) [Example 25b]
4. COCC(NC(=O)c1ccc(OC)nc1)C1CCC(c2ccnc3ccc(C(F)(F)F)cc23)CC1 (single isomer, unassigned) [Example 12a]
5. CC[C@H](NC(=O)c1ccc(OC)nc1)[C@H]1CC[C@@H](c2cncc(OC)c2)CC1 (single isomer, unassigned) [Example 50b]
Given 5 molecules, produce a descending ranking by IC50. In plain terms: list the labels in the order you were asked to.
2, 5, 4, 1, 3
(2: 360 nM, 5: 250 nM, 4: 80 nM, 1: 20 nM, 3: 10 nM)

a. COc1ccc(C(=O)NC(C)C2(O)CCC(c3ccnc4ccc(F)cc34)CC2)cn1 (single isomer, unassigned) [Example 62b]
b. C[C@@H](NC(=O)c1ccc(-n2cccn2)nc1)[C@H]1CC[C@@H](c2ccnc3ccc(F)cc32)CC1 [Example 4]
c. CCC(NC(=O)c1ccc(OC)nc1)C1CCC(c2ccnc(OC)c2C(F)F)CC1 (single isomer, unassigned) [Example 24b]
d. CC[C@@H](NC(=O)c1ccc(OC)nc1)[C@H]1CC[C@@H](c2cnc3ccccc3c2)CC1 (single isomer, unassigned) [Example 20a]
e. CC[C@@H](NC(=O)c1cnc(OC)nc1)[C@H]1CC[C@@H](c2ccnc3c(F)cccc32)CC1 (single isomer, unassigned) [Example 60d]
Hi! Can you put these in order of IC50, lowest number first? In plain terms: list the labels in the order you were asked to.
b, a, e, d, c
(b: 10 nM, a: 20 nM, e: 170 nM, d: 250 nM, c: 900 nM)

1. CC[C@H](NC(=O)c1ccc(OC)nc1)[C@H]1CC[C@@H](c2cncc(OC)c2)CC1 (single isomer, unassigned) [Example 50d]
2. CCC(NC(=O)c1ccc(OC)nc1)[C@H]1CC[C@@H](c2ccnc3c(OC)cc(C(F)(F)F)cc32)CC1 (mixture of isomers) [Example 44]
Lab note: record which item had the higher IC50, 1 or 2 . Give the label under which the chosen entry appears.
1
(1: 220 nM, 2: 10 nM)

I. CCC(NC(=O)c1cnc(OC)nc1)C1CCC(c2ccnc3c(F)cc(F)cc23)CC1 (single isomer, unassigned) [Example 58a]
II. CC[C@@H](NC(=O)c1ccc(OC)nc1)[C@H]1CC[C@@H](c2ccnc3c(F)cccc32)CC1 (single isomer, unassigned) [Example 59d]
Lab note: record which item had the higher IC50, I or II . Give the label under which the chosen entry appears.
I
(I: 310 nM, II: 110 nM)

A. CC[C@@H](NC(=O)c1ccc(OC)nc1)[C@H]1CC[C@@H](c2ccnc(F)c2C)CC1 (single isomer, unassigned) [Example 56c]
B. COc1ccc(C(=O)N[C@H](CC2(C)COC2)[C@H]2CC[C@@H](c3ccnc4ccc(C(F)(F)F)cc43)CC2)cn1 (single isomer, unassigned) [Example 17b]
Lab note: record which item had the higher IC50, A or B . Give the label under which the chosen entry appears.
A
(A: 600 nM, B: 350 nM)

a. CC[C@H](NC(=O)c1ccc(OC)nc1)[C@H]1CC[C@@H](c2cncc(OC)c2)CC1 (single isomer, unassigned) [Example 50a]
b. CCC(NC(=O)c1ccc(OC)nc1)C1CCC(c2ccnc(OC)c2C)CC1 (single isomer, unassigned) [Example 28a]
Record comparison, field IC50: mark the lower of a and b . Give the label under which the chosen entry appears.
b

P. COc1ccc(-c2ccc(C(=O)N[C@H](C)[C@H]3CC[C@@H](c4ccnc5ccc(F)cc54)CC3)cn2)cn1 [Example 1]
Q. CCC(NC(=O)c1ccc(OC)nc1)C1CCC(c2ccnc3c(F)cc(F)cc23)CC1 (single isomer, unassigned) [Example 57c]
Record comparison, field IC50: mark the lower of P and Q . Give the label under which the chosen entry appears.
P

* * *

# system: indoleamine 2,3-dioxygenase (IDO) (Homo sapiens, UniProt P14902)
# assay.details: HeLa cell-based indoleamine 2,3-dioxygenase (IDO) assay (kynurenine production, IFNγ-stimulated)
# experimental.setup: HeLa cells; potency class; read-out: Patent Potency Hela IC50 A < 10 nM, B > 10 nM, C > 100 nM
result.type: IC50

COc1ccc(C(=O)N[C@H](C)[C@H]2CC[C@@H](c3ccnc4ccc(F)cc43)CC2)cn1 [Example 2]; < 10 nM

GET /values?readout=IC50&system=indoleamine 2,3-dioxygenase (IDO) (Homo sapiens, UniProt P14902)&item= CCC(NC(=O)c1ccc(OC)nc1)C1CCC(c2ccnc(OC)c2C(F)F)CC1 (single isomer, unassigned) [Example 24a]
< 10 nM

GET /values?readout=IC50&system=indoleamine 2,3-dioxygenase (IDO) (Homo sapiens, UniProt P14902)&item= CC[C@@H](NC(=O)c1cnc(OC)nc1)[C@H]1CC[C@@H](c2ccnc(OC)c2F)CC1 (single isomer, unassigned) [Example 21c]
> 100 nM

* * *

# system: indoleamine 2,3-dioxygenase (IDO) (Homo sapiens, UniProt P14902)
# assay.details: HeLa cell-based indoleamine 2,3-dioxygenase (IDO) assay (kynurenine production, IFNγ-stimulated)
# experimental.setup: HeLa cells, IFNγ 25 ng/mL, 48 hour incubation; read-out: IDO Hela IC50
result.type: IC50 (nM)

CCC(NC(=O)c1ccc(OC)nc1)C1CCC(c2cccc(=O)n2C)CC1 (single isomer, unassigned) [Example 32b]; 80
COCCOCC(NC(=O)c1ccc(OC)nc1)C1CCC(c2ccnc3ccc(F)cc23)CC1 (single isomer, unassigned) [Example 15b]; 10
COc1ccc(C(=O)NC(C)C2(O)CCC(c3ccnc4ccc(F)cc34)CC2)cn1 (single isomer, unassigned) [Example 62a]; 70
CC[C@@H](NC(=O)c1ccc(OC)nc1)[C@H]1CC[C@@H](c2ccnc3c(F)cccc32)CC1 (single isomer, unassigned) [Example 59c]; 330
CCC(NC(=O)c1ccc(OC)nc1)C1CCC(c2cccc(C)n2)CC1 (single isomer, unassigned) [Example 46a]; 330
C[C@@H](NC(=O)c1ccc(F)nc1)[C@H]1CC[C@@H](c2ccnc3ccc(F)cc32)CC1; 10
CCC(NC(=O)c1ccc(OC)nc1)C1CCC(c2cccc(C(F)(F)F)n2)CC1 (single isomer, unassigned) [Example 47d]; 290
CCC(NC(=O)c1ccc(OC)nc1)[C@H]1CC[C@@H](c2cc(C)ccn2)CC1 (single isomer, unassigned) [Example 45b]; 620
CCC(NC(=O)c1ccnc(N2CCOCC2)c1)C1CCC(c2ccnc(OC)c2C(F)F)CC1 (single isomer, unassigned) [Example 26b]; 10
COc1ccc(C(=O)N[C@H](CC2(C)COC2)[C@H]2CC[C@@H](c3ccnc4ccc(C(F)(F)F)cc43)CC2)cn1 (single isomer, unassigned) [Example 17a]; 30

P. CCOC[C@@H](NC(=O)c1ccc(OC)nc1)[C@H]1CC[C@@H](c2ccnc3ccc(C(F)(F)F)cc32)CC1 (single isomer, unassigned) [Example 13d]
Q. CC[C@@H](NC(=O)c1ccc(OC)nc1)[C@H]1CC[C@@H](c2cnc3ccccc3c2)CC1 (single isomer, unassigned) [Example 20c]
Record comparison, field IC50: mark the lower of P and Q . Give the label under which the chosen entry appears.
Q
